# assayed.system: ATP-dependent translocase ABCB1 (Homo sapiens)
# Sequence (P08183 whole entry): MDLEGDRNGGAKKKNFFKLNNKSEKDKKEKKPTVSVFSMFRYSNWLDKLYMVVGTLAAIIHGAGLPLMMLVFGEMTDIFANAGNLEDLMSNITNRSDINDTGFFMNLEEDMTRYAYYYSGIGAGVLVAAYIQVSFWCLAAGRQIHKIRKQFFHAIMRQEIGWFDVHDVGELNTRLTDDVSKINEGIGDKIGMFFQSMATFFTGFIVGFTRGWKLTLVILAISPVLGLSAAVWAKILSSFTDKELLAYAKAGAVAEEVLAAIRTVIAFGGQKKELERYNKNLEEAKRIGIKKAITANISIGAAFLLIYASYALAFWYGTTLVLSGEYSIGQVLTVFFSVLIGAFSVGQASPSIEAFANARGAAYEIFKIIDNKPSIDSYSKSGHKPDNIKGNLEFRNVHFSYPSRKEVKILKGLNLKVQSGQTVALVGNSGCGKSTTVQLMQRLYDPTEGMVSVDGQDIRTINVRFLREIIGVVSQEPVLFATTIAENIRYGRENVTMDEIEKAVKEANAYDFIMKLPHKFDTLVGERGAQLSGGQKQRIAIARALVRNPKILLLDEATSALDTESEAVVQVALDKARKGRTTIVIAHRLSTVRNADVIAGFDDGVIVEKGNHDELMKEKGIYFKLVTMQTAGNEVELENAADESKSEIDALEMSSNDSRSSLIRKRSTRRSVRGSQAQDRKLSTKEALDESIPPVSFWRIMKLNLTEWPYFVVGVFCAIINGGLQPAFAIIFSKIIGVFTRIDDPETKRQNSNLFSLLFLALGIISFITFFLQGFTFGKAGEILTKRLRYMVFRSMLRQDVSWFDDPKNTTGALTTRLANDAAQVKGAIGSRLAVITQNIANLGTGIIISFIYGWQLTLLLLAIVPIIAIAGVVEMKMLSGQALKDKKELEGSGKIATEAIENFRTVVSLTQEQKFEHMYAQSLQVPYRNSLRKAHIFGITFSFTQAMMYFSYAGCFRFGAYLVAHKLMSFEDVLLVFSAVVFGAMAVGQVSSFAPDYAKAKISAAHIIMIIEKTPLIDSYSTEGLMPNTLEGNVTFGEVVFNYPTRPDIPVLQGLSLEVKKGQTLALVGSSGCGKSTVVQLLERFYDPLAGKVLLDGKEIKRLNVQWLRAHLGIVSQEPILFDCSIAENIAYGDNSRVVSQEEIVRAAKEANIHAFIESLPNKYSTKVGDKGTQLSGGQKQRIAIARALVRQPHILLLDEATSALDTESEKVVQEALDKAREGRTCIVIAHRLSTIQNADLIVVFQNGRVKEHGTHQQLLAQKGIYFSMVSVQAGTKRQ
# test: Inhibition of P-gp mediated efflux in adriamycin-resistant human HepG2 cells assessed as intracellular rhodamine-123 accumulation at 0.125 to 10 uM incubated in dark condition for 90 mins by flow cytometry
# Type: cell-based
quantity.kind: INH

Below are worked cases with known answers.
CC(=O)O/C1=C(\C)[C@@H](O)[C@H]2[C@@H](OC(=O)c3ccccc3)[C@@H](C)[C@H](O)[C@]2(O)[C@H](O)/C(C)=C/CC(C)(C)[C@H](OC(C)=O)[C@H]1OC(C)=O Not Active
CC(=O)O[C@@H]1[C@@H](OC(C)=O)C(=O)/C(C)=C/C2=C[C@@H](C)[C@H](OC(C)=O)[C@]2(OC(C)=O)[C@H](OC(C)=O)/C(C)=C/CC1(C)C Not Active
CC(=O)O[C@@H]1CC(=O)/C(C)=C/[C@H]2C=C(C)C(=O)[C@]2(OC(C)=O)[C@H](O)[C@](C)(O)/C=C/C1(C)C Not Active
C/C1=C\[C@H]2[C@@H](OC(=O)c3ccccc3)[C@@H](C)[C@H](O)[C@]2(O)[C@H](O)[C@](C)(O)/C=C/C(C)(C)[C@H](O)C[C@H]1OC(=O)c1ccccc1 Not Active
CC(=O)O[C@@H]1C[C@@H](O)/C(C)=C/[C@H]2[C@@H](OC(=O)c3ccccc3)[C@@H](C)[C@H](O)[C@]2(OC(C)=O)[C@H](O)[C@](C)(O)/C=C/C1(C)C Not Active

Give INH for each of the items listed below.
1. C/C1=C\[C@H]2[C@@H](OC(=O)c3ccccc3)[C@@H](C)[C@H](O)[C@]2(O)[C@H](O)[C@](C)(O)/C=C/C(C)(C)[C@H](O)C[C@H]1O
2. C/C1=C\[C@H]2[C@@H](O)[C@@H](C)[C@H](O)[C@]2(O)[C@H](O)[C@](C)(O)/C=C/C(C)(C)[C@H](O)C[C@H]1O
3. CC(=O)O[C@@H]1[C@@H](O)C(=O)/C(C)=C/C2=C[C@@H](C)[C@H](OC(C)=O)[C@]2(OC(C)=O)[C@H](OC(C)=O)/C(C)=C/CC1(C)C
4. CC(=O)O[C@@H]1[C@@H](O)C(=O)/C(C)=C/C2=C[C@@H](C)[C@H](O)[C@]2(OC(C)=O)[C@H](O)/C(C)=C/CC1(C)C

OUTPUT:
1. Not Active
2. Not Active
3. Not Active
4. Not Active

====

# assayed.system: ATP-dependent translocase ABCB1 (Homo sapiens)
# test: Inhibition of P-gp mediated efflux in adriamycin-resistant human HepG2 cells assessed as intracellular rhodamine-123 accumulation at 2 uM incubated in dark condition for 90 mins by flow cytometry relative to control
# Assay type: cell-based
quantity.kind: FC

COc1cc2c(cc1OC)CN(CCc1ccc(NC(=O)c3cc(OC)c(OC)cc3NC(=O)c3cnc4ccccc4c3)cc1)CC2 2.97
CC(=O)O/C1=C(\C)[C@@H](O)[C@H]2[C@@H](OC(=O)c3ccccc3)[C@@H](C)[C@H](OC(=O)c3ccccc3)[C@]2(OC(C)=O)[C@H](OC(C)=O)/C(C)=C/CC(C)(C)[C@H](OC(C)=O)[C@H]1OC(C)=O 2.78
CC(=O)O[C@@H]1C[C@@H](OC(=O)c2ccccc2)/C(C)=C/[C@H]2[C@@H](OC(=O)c3ccccc3)[C@@H](C)[C@H](O)[C@]2(OC(C)=O)[C@H](O)[C@](C)(O)CCC1(C)C 2.74
CC(=O)O/C1=C(\C)[C@H]2O[C@@](C)([C@@H](OC(C)=O)CC(C)(C)[C@H](OC(C)=O)[C@H]1OC(C)=O)[C@@H](OC(C)=O)[C@]1(OC(C)=O)[C@@H]2[C@@H](OC(=O)c2ccccc2)[C@@H](C)[C@@H]1OC(C)=O 3.07

Below: the item to evaluate.
INPUT: Quick one: FC of CC(=O)O[C@@H]1C[C@@H](OC(=O)c2ccccc2)/C(C)=C/[C@H]2[C@@H](OC(=O)c3ccccc3)[C@@H](C)[C@H](O)[C@]2(OC(C)=O)[C@H](O)[C@](C)(O)/C=C/C1(C)C ?
OUTPUT: 2.8
